- target.of.assay: 5-hydroxytryptamine receptor 2A (Homo sapiens, UniProt P28223); further: assay procedure not described here
- Sequence (P28223 whole entry): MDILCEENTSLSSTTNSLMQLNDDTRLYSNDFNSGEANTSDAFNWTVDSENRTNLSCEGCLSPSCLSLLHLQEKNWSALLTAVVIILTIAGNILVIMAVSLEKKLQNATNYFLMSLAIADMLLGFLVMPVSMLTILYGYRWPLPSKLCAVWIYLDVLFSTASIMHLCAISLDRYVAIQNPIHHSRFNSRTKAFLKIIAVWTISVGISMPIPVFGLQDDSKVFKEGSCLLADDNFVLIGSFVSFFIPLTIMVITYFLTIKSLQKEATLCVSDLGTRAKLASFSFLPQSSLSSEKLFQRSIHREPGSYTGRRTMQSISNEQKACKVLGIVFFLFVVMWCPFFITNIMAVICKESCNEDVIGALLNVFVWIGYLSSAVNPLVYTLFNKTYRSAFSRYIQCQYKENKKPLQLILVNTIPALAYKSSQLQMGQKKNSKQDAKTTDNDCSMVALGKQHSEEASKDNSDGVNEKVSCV
- Format: functional, cell-based
measured.quantity: AC50

> print(dat)
                                   compound  measured.quantity  measured.result
1  COc1ccc(C(=O)c2ccccc2)c(O)c1 [OXYBENZONE]               AC50          > 30 µM
2  CCC(=O)c1ccc2c(c1)N(CC(C)N(C)C)c1ccccc1S2 (stereo not given) [PROPIOMAZINE]               AC50             1 µM
3  COc1cc(N)cn[n+]1-c1ccccc1 [AMEZINIUM METILSULFATE]               AC50          > 30 µM
4  CCOc1ccccc1OCCN[C@H](C)Cc1ccc(OC)c(S(N)(=O)=O)c1 [TAMSULOSIN]               AC50          > 30 µM
5  CNC1(C)C2CCC(C2)C1(C)C (stereo not given) [MECAMYLAMINE]               AC50          > 10 µM

###

- target.of.assay: 5-hydroxytryptamine receptor 2B (Homo sapiens); further: assay procedure not described here
- Sequence (P41595 whole entry): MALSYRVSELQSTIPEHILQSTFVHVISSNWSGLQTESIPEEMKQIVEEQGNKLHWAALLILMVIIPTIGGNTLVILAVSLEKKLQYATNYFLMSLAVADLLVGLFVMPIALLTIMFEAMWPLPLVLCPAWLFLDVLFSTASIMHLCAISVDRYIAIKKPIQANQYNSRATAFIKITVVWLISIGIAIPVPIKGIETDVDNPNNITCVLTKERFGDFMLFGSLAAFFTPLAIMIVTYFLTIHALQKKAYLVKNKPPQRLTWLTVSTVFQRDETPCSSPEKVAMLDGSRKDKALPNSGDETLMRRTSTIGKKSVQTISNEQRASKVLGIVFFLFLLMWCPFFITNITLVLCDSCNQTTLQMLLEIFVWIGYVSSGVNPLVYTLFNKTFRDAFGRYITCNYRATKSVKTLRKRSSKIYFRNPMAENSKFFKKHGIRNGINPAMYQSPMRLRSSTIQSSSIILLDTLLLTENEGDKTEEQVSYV
- Type: functional, cell-based

compound	AC50
CC(NCCC(c1ccccc1)c1ccccc1)c1ccccc1 (stereo unspecified) [FENDILINE]	> 30 µM
CC(C)N1CCN(c2ccc(OCC3COC(Cn4cncn4)(c4ccc(Cl)cc4Cl)O3)cc2)CC1 (stereo unspecified) [TERCONAZOLE]	> 30 µM
O=C(O)[C@@H](S)[C@@H](S)C(=O)O	> 30 µM
CC(C)=CCC/C(C)=C/CC/C(C)=C/CC/C(C)=C/CC1=C(C)C(=O)c2ccccc2C1=O [MENATETRENONE]	> 30 µM
Nc1ccn(C[C@@H](CO)OCP(=O)(O)O)c(=O)n1 [CIDOFOVIR]	> 30 µM
CN(C)CCN(Cc1ccccc1)c1ccccn1 [TRIPELENNAMINE]	> 30 µM
Nc1ccc(C(=O)NCC(=O)O)cc1 [AMINOHIPPURIC ACID]	> 30 µM
CC(C)NC[C@H](O)COc1ccc(O)cc1 [PRENALTEROL]	> 30 µM
COCC(=O)O[C@]1(CCN(C)CCCc2nc3ccccc3[nH]2)CCc2cc(F)ccc2[C@@H]1C(C)C [MIBEFRADIL]	> 30 µM
CC(C)N1CCOC(c2cccc(C(F)(F)F)c2)C1 (stereo unspecified) [OXAFLOZANE]	1.01 µM
CC(=O)OCC(=O)[C@@]1(OC(C)=O)[C@@H](C)C[C@H]2[C@@H]3C[C@H](F)C4=CC(=O)C=C[C@]4(C)[C@@]3(F)[C@@H](O)C[C@@]21C [DIFLORASONE DIACETATE]	> 30 µM
O=P1(N(CCCl)CCCl)NCCCO1 (stereo unspecified) [CYCLOPHOSPHAMIDE ANHYDROUS]	> 30 µM
COc1cc(C[C@@H]2NCCc3cc(O)c(O)cc32)cc(OC)c1OC [TRETOQUINOL]	> 30 µM
C[C@@H](CN1CC(=O)NC(=O)C1)N1CC(=O)NC(=O)C1 [DEXRAZOXANE]	> 30 µM
CCOC1O[C@H]([C@@H](COCc2ccccc2)OCc2ccccc2)[C@H](OCc2ccccc2)[C@H]1O (stereo partly specified) [TRIBENOSIDE]	> 30 µM
CSCC[C@H](N)C(=O)O [METHIONINE]	> 30 µM
Cc1cccc(C)c1NC(=O)CN(CC(=O)O)CC(=O)O [LIDOFENIN]	> 30 µM
O=C1Nc2ccccc2C1(c1ccc(O)cc1)c1ccc(O)cc1 [OXYPHENISATINE]	> 30 µM
CC1=C(C/C=C(\C)CCC[C@H](C)CCC[C@H](C)CCCC(C)C)C(=O)c2ccccc2C1=O [PHYTONADIONE]	> 30 µM
CC(=O)Nc1ccc(/C=N/NC(N)=S)cc1 [AMITHIOZONE]	> 30 µM
C[C@@H]1CN(c2c(F)c(N)c3c(=O)c(C(=O)O)cn(C4CC4)c3c2F)C[C@H](C)N1 [SPARFLOXACIN]	> 30 µM

Values compiled from ChEMBL document CHEMBL5291721.
